Data origin: ChEMBL document CHEMBL1143601

# Tested on: Rattus norvegicus
# Assay text: In vivo anti-infarction effect was determined by measuring percent ratio of myocardial infarct size to area at risk (IS/AAR)in rat myocardial infarction model upon administration of 0.1 mg/kg
# Format: functional, Myocardium
The threshold is inclusive: IS/AAR of exactly 40% counts as Yes; values below receive No.

INSERT INTO measurements (smiles_representation, cat) VALUES
  ('Cc1cc(C)cc(-c2ccc(C(=O)N=C(N)N)o2)c1', 'Yes'),
  ('N=C(N)NC(=O)c1ccc(-c2cccc(Cl)c2)o1', 'Yes'),
  ('COc1ccc(Cl)cc1-c1ccc(C(=O)N=C(N)N)o1', 'No');

---

# Organism: Rattus norvegicus
# Assay text: In vitro cardioprotective effect in isolated ischemic rat heart model as recovery of rate pressure product (RPP) at 10 uM
# Assay type: functional
Reported endpoint: RPP (%)

INSERT INTO measurements (smiles_representation, val) VALUES
  ('COc1ccccc1-c1ccc(C(=O)N=C(N)N)o1', 46),
  ('Cc1cccc(-c2ccc(C(=O)N=C(N)N)o2)c1', 75),
  ('COc1ccc(Br)cc1-c1ccc(C(=O)N=C(N)N)o1', 6),
  ('N=C(N)NC(=O)c1ccc(-c2cccc(Cl)c2Cl)o1', 40);

---

IS/AAR overview
# Test system: Rattus norvegicus
# Assay text: In vivo anti-infarction effect was determined by measuring percent ratio of myocardial infarct size to area at risk (IS/AAR)in rat myocardial infarction model upon administration of 0.1 mg/kg
# Format: functional, Myocardium
Reported endpoint: IS/AAR

INSERT INTO results (compound, reported_endpoint, val) VALUES
  ('N=C(N)NC(=O)c1ccc(-c2cccc(F)c2)o1', 'IS/AAR', '41%'),
  ('CC(C)c1ccc(C(=O)N=C(N)N)cc1S(C)(=O)=O [CARIPORIDE]', 'IS/AAR', '41%'),
  ('N=C(N)NC(=O)c1ccc(-c2cc(F)cc(F)c2)o1', 'IS/AAR', '40%');
